# Measurement notes: protein stability index of a GFP-peptide fusion (GPS, HEK-293T) (PSI 1-6); higher = more stable;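 also: 24-mer peptide tiles fused after GFP, lentivirally expressed, FACS-sorted into six equal bins by GFP/DsRed ratio, decoded by Illumina sequencing, PSI is the read-weighted mean bin number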
# Cond: treatment: MLN4924 1 uM, 8 h; c terminus: a fixed tail appended
Known protein stability index of a selection of sequences
Give the figure only, with no unit attached.

Sample answers from the record:
{"Seq": "PEPQVPGPAHGPAQEEPWEKKESL [ZNF232]", "protein stability index": 5.62}
{"Seq": "VDPDNVVLCLLAADEDDDRDVALQ [GADD45A]", "protein stability index": 4.77}
{"Seq": "YLDLPGSRQGSAEALRALQEGLWL [PKD2L1]", "protein stability index": 2.64}
{"Seq": "NLTSNEGHSLKNLEHRLNEMERTQ [RASAL3]", "protein stability index": 4.26}

Next, consider the following sequence.
# input sequence: PMQKLQDLVNRTPWKKCCFSGDGE [RBBP5] ; wanted: its protein stability index
2.94

###

# Measurement notes: protein stability index of a GFP-peptide fusion (GPS, HEK-293T) (PSI 1-6); higher = more stable
# Cond: treatment: DMSO; c terminus: a fixed tail appended
Observation type: protein stability index
Give the figure only, with no unit attached.

{"Seq": "KIINTKKLSARDHQKLEREARICR [CAMK2B]", "protein stability index": 3.45}
{"Seq": "PKNDNVVIPECAHGGLYKPVQCHP [SMOC2]", "protein stability index": 3.44}
{"Seq": "HMIQGAGSLEKALPIIQSNQVSSN [DLC1]", "protein stability index": 4.22}
{"Seq": "ELQEKQKNEKLISLQEQLQRFLKK [TAF7L]", "protein stability index": 3.36}
{"Seq": "PVCPTVCPPGGIHQVTVNESLLAP [KRT71]", "protein stability index": 4.36}

# input sequence: GRCIHAGCDRIIGSKKKFDKCMVC [ADAMTS4] ; wanted: its protein stability index
3.66

# input sequence: CTAGNFMECQPESSISHRFHKDCA [EHMT1] ; wanted: its protein stability index
2.96

# input sequence: CNDLFKVNPFQLQQFRADPSTASL [TIAF1] ; wanted: its protein stability index
2.71

# input sequence: NDFVQVDPGQVGLINSNVSMVDLT [FAN1] ; wanted: its protein stability index
3.9

# input sequence: NYCSAYESFYESTSPECASPQFEG [NEUROD6] ; wanted: its protein stability index
3.54

# input sequence: LKCEMNQMSGEPLDKLNFEAINFC [ACSBG2] ; wanted: its protein stability index
2.92

# input sequence: TENEEQTQLTQNAVSCPYLPSNLL [KCNA4] ; wanted: its protein stability index
4.49

# input sequence: DAHLVLDGEEIPVQKNILAAASPY [GAN] ; wanted: its protein stability index
4.18

###

# Measurement notes: protein stability index of a GFP-peptide fusion (GPS, HEK-293T) (PSI 1-6); higher = more stable
# Cond: treatment: DMSO; c terminus: a fixed tail appended
Known protein stability index of a selection of sequences
Give the figure only, with no unit attached.

Sample answers from the record:
{"Seq": "KKQQELTAAVLGLICEGLYPASIV [ZBED1]", "protein stability index": 2.97}
{"Seq": "KSNSYPHQLYTSSSHHSHSYIGLP [KMT2E]", "protein stability index": 3.03}
{"Seq": "QEKLQVLMAEGLLPAVKVFLDWLR [SMG5]", "protein stability index": 2.5}
{"Seq": "LYFATLRNRPKSTVNTHYFSIDEE [CDC14A]", "protein stability index": 2.11}
{"Seq": "TADISSHFQEAIDFIDCVREKGGK [DUSP5]", "protein stability index": 4.4}

# input sequence: AFHDGQRSRLRPRDDLDRLGVFLD [TRIM14] ; wanted: its protein stability index
3.35
